- TEST_TARGET: acyl-coenzyme A:cholesterol acyltransferase (ACAT) (Oryctolagus cuniculus, UniProt G1SFD9)
Mark each entry rule met if its IC50 sits below 40 nM, and rule not met for all others.

Query: State whether 40 nM exceeds IC50 recorded for CC(C)c1cccc(C(C)C)c1NC(=O)Nc1nc(C(C)(C)C)cs1 .
Reply: rule not met

----------
- TEST_TARGET: UniProt:G1SFD9
- Sequence (G1SFD9 1-524): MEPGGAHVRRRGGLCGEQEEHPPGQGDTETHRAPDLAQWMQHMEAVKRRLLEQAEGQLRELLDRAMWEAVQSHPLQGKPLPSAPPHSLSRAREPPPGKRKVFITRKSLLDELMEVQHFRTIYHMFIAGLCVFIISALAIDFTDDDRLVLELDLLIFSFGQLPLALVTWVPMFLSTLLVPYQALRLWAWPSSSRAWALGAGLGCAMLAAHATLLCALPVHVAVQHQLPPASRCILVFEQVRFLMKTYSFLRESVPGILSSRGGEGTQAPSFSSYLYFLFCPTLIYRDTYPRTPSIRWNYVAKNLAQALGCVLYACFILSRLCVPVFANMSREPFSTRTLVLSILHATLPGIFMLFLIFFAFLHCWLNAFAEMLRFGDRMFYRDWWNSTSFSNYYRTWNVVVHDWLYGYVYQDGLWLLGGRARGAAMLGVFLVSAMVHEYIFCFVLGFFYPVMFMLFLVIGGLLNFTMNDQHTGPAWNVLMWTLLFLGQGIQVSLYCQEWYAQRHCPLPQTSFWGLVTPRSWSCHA
- ASSAY_OVERVIEW: In vitro ACAT inhibition (radiolabeled cholesterol oleate formation from oleic acid, rabbit intestinal microsomes)
- Format: biochemical
pIC50: −log10 of the molar value.
Each item that follows carries a reported pIC50.

Example entries and their recorded answers appear below.
Cc1cc(NC(=O)Nc2c(C(C)C)cccc2C(C)C)no1 [Example 18] = < 5.30
CCCCCCCCCCc1cc(NC(=O)Nc2c(C(C)C)cccc2C(C)C)no1 [Example 14] = 7.55

The molecule CC(C)c1cccc(C(C)C)c1NC(=O)Nc1nc(-c2ccccc2)cs1 [Example 5] , when measured on UniProt:G1SFD9, yielded pIC50 of < 5.30

----------
- ASSAY_OVERVIEW: APCC in vivo screen: blood cholesterol in cholesterol-fed rats
- Set-up: species or system male Sprague-Dawley rats
- MEASUREMENT_CONDITIONS: Rattus norvegicus, 192 h; 3 mg/kg, oral; chow diet with peanut oil 5.5%, cholesterol 1.5%, cholic acid 0.5%; blood sampled next day 8 AM; read-out: % Change (mg/dl)
Mark each entry True if its change in vivo at 3 mg/kg sits below -30%, and False for all others.

CCCCCCCCCCCCCc1cc(NC(=O)Nc2c(C(C)C)cccc2C(C)C)no1 = True

Query: State whether -30% exceeds change in vivo at 3 mg/kg recorded for CCCCCCCCCCCCCCc1cc(NC(=O)Nc2c(C(C)C)cccc2C(C)C)on1 .
Reply: True

----------
- ASSAY_OVERVIEW: APCC in vivo screen: blood cholesterol in cholesterol-fed rats
- Set-up: species or system male Sprague-Dawley rats
- MEASUREMENT_CONDITIONS: Rattus norvegicus, 192 h; 3 mg/kg, oral; chow diet with peanut oil 5.5%, cholesterol 1.5%, cholic acid 0.5%; blood sampled next day 8 AM; read-out: % Change (mg/dl)
- Procedure: In one in vivo screen designated APCC, male Sprague-Dawley rats (200 to 225 g) were randomly divided into treatment groups and dosed orally at 4 PM with either vehicle (CMC/Tween) or suspensions of test compounds in vehicle. The control group received vehicle alone. […] Statistical differences between mean cholesterol values for the same vehicle were determined using analysis of variance followed by Fisher's least significant test. […]
REPORTED_ENDPOINT: change in vivo at 3 mg/kg (%)
Lab book: enter the figure in %, no units written.

Example entries and their recorded answers appear below.
CCCCCCCCCCCc1cc(NC(=O)Nc2c(C(C)C)cccc2C(C)C)on1 = -67
CCCCCCCCCCCCc1cc(NC(=O)Nc2c(C(C)C)cccc2C(C)C)no1 = -54
CCCCCCCCCCCCCc1cc(NC(=O)Nc2c(C(C)C)cccc2C(C)C)on1 = -51
CCCCCCCCCCCCc1cc(NC(=O)Nc2c(C(C)C)cccc2C(C)C)on1 = -58

Attention now turns to another entry.
Per the record, CCCCCCCCCCCCCCc1cc(NC(=O)Nc2c(C(C)C)cccc2C(C)C)no1 has change in vivo at 3 mg/kg of -47
